Attribution: patent US7943568B2

- experimental-protocol: Rat pharmacokinetics of FK228
- Type: in vivo
- experimental-context: male, Sprague-Dawley, plasma, iv, I.v. bolus with CsA pretreatment (n = 3)
quantity: Cmax (nM)
Dear colleague, please return just the value in nM, with no unit written.

Ask: Look up and state reported Cmax for C/C=C1\NC(=O)[C@H]2CSSCC/C=C/[C@H](CC(=O)N[C@H](C(C)C)C(=O)N2)OC(=O)[C@H](C(C)C)NC1=O [FK228]
Reply: 548

###

- experimental-protocol: Rat pharmacokinetics of FK228
- Format: in vivo
- experimental-context: male, Sprague-Dawley, plasma, iv, I.v. bolus with CsA pretreatment (n = 3), read-out: Vdss
quantity: Vd
Quick note: number first, unit second.

Ask: Could you please provide reported Vd for C/C=C1\NC(=O)[C@H]2CSSCC/C=C/[C@H](CC(=O)N[C@H](C(C)C)C(=O)N2)OC(=O)[C@H](C(C)C)NC1=O ? Thanks!
Reply: 29 L/kg

###

- experimental-protocol: Formation kinetics of FK228 metabolites in rat plasma containing 10 mM GSH
- Format: in vitro ADME
- experimental-context: rat, plasma; read-out: terminal half life
quantity: half-life at 100 μg/mL
A complete answer gives the number and then names the unit.

Ask: Tell me measured half-life at 100 μg/mL for CC(C)C1NC(=O)CC(/C=C/CCS)OC(=O)C(C(C)C)NC(=O)C2NC(=O)C(CSC2C)NC1=O (stereo not shown) [metabolite B] please.
Reply: 14.4 min

###

- experimental-protocol: Rat pharmacokinetics of FK228
- Assay type: in vivo
- experimental-context: male, Sprague-Dawley, plasma, iv, 2 mg/kg, I.v. infusion (n = 6), read-out: Vdss
- Method: Pharmacokinetics and tissue distribution studies in the rat Twenty-three male S.D. rates weighing 250-300 g were divided into 5 groups. […] At the time schedule of predose, 5, 10, 20, […], 60, 120, 180, 300 minutes after doing, blood samples of 0.2 mL each were withdrawn from the same cannula with an equal volume of normal saline. […] The homogenates were then extracted and determined as in plasma samples (Chan, et al. 1997; Li and Chan, 2000). […]
quantity: Vd (L/kg)
Lab book: enter the figure in L/kg, no units written.

Ask: Write down Vd measured for item C/C=C1\NC(=O)[C@H]2CSSCC/C=C/[C@H](CC(=O)N[C@H](C(C)C)C(=O)N2)OC(=O)[C@H](C(C)C)NC1=O
Reply: 10.8

###

- experimental-protocol: Rat pharmacokinetics of FK228
- Assay type: in vivo
- experimental-context: male, Sprague-Dawley, plasma, iv, 2 mg/kg, I.v. infusion (n = 6)
quantity: MRT (min)
Field: numeric (min). Do not append units.

Ask: Report MRT for C/C=C1\NC(=O)[C@H]2CSSCC/C=C/[C@H](CC(=O)N[C@H](C(C)C)C(=O)N2)OC(=O)[C@H](C(C)C)NC1=O [FK228]
Reply: 17.7

###

- experimental-protocol: Rat pharmacokinetics of FK228
- Type: in vivo
- experimental-context: male, Sprague-Dawley, plasma, iv, 2 mg/kg, I.v. bolus (n = 6), 2 mg/kg, read-out: Cltotal
quantity: clearance (mL/min)
Your answer is read as mL/min, so omit the unit and give the number.

Ask: Retrieve clearance measured for C/C=C1\NC(=O)[C@H]2CSSCC/C=C/[C@H](CC(=O)N[C@H](C(C)C)C(=O)N2)OC(=O)[C@H](C(C)C)NC1=O and print it.
Reply: 237
